Molecular target: T1, Activin A (UniProt P08476 311-426)
T1 sequence (looked up): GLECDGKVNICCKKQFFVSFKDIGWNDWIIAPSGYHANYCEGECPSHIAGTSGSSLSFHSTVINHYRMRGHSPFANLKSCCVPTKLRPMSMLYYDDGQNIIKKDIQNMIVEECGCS
Assay: SPR, Biacore 3000; receptor fusion captured on chip, ligand in solution
Metric: Kd (nM)
Response body: numeric value in nM, unit text excluded.

Solved cases below.
| Binder | Kd / nM |
| --- | --- |
| ActRIIa/b-delta 9m3 (SEQ ID NO: 41) fused to the N-terminus of hFc through a GGG linker (Fc fusion, also called ActRIIa/bΔ9m3 variant; not shown: human Fc (hFc)) GAILGRSETQECLFYNANWELDRTNQTGVERCEGEKDKRLHCFATWRNISGSIEIVKKGCWLDDFNCYDRTDCVETKENPQVYFCCCEGNMCNEKFSYFPEMEVTQPTSGGG | 0.071 |
| ActRIIa/bmax1 (SEQ ID NO: 70) fused to the N-terminus of hFc through a GGG linker (Fc fusion, also called ActRIIa/bmax1 variant; not shown: human Fc (hFc)) GAILGRSETQECLYYNANWELERTNQTGVERCEGEQDKRLHCYATWRNISGSIEIVKKGCWLDDFNCYDRTDCVETEENPQVYFCCCEGNMCNEKFSYFPEMEVTQPTSGGG | 0.232 |
| extracellular ActRIIa/b variant (SEQ ID NO: 69) fused to the N-terminus of hFc through a GGG linker (Fc fusion, also called ActRIIA/B-Fc; not shown: human Fc (hFc)) GAILGRSETQECLFYNANWELERTNQTGVERCEGEKDKRLHCYATWRNISGSIEIVKKGCWLDDFNCYDRTDCVETEENPQVYFCCCEGNMCNEKFSYFPEMEVTQPTSGGG | 0.542 |

Note: attention shifts to another entry.
Prompt: Find the recorded Kd belonging to extracellular ActRIIa/bΔ9 min variant (SEQ ID NO: 6) fused to the N-terminus of hFc through a GGG linker (Fc fusion, not shown: human Fc (hFc)) GAILGRSETQECLFYNANWELDRTNQTGVEPCEGEKDKRLHCFATWKNISGSIEIVKKGCWLDDINCYDRTDCVETKENPQVYFCCCEGNMCNEKFSYFPEMEVTQPTSGGG and report it.
Completion: 0.31
